Taken from paper PMC12064818.

- Target of assay: FLuc-C-HiBiT (Photinus pyralis)
- Construct: firefly luciferase with C-terminal HiBiT tag, E. coli expressed
- Sequence (P08659 whole entry, looked up): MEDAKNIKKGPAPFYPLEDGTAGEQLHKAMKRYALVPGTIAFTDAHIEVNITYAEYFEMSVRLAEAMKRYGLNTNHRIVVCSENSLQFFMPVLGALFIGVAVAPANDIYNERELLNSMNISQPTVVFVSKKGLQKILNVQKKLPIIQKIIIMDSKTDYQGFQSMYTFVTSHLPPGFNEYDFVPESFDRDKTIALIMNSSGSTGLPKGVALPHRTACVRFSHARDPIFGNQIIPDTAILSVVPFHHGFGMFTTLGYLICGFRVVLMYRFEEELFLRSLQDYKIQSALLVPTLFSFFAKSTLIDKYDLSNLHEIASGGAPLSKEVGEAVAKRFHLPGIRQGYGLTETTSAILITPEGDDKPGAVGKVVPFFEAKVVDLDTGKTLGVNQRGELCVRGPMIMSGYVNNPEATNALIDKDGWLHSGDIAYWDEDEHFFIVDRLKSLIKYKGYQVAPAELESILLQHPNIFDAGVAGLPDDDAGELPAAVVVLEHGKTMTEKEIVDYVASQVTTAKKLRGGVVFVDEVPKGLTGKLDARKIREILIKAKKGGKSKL
- Protocol text: biochemical
- Condition: enzyme activity, 10 uM ATP; read-out: IC50 or SDR50 (mM) / FLuc E
Observed property: IC50 (mM)

Cc1ccccc1-c1cccc(COc2cnc3c(ccn3CC(=O)O)c2)c1; 0.018
COc1ccc(-c2cc3c(=O)n(CCNC(=O)c4cccc(N(C)C)c4)ccn3n2)cc1; 0.00351
COc1cccc(-c2cc3c(=O)n(CCNC(=O)c4ccccc4Cl)ccn3n2)c1; 0.00881
Cc1ccc(-c2cc(C(=O)N3CCC(Cc4nncn4CC4CC4)CC3)c3ccccc3n2)cc1C; 0.00197
Cc1c(-c2ccccc2)[nH]c2c(CNC(=O)C3=NN(C)C(=O)CC3)cc(Cl)cc12; 0.0124
Cc1nnn2c(C(=O)NC3CC3)cccc12; 0.0254
OC(c1nc(Nc2ccc(Oc3ccccc3)cc2)n[nH]1)C1CC1 (centres unmarked); 0.0202
O=C1NCCCc2[nH]c(-c3cc(-c4cccc(F)c4)no3)nc21; 0.007
